targetOrTestSystem: recombinant human ACC1 (rhACC1) (Homo sapiens (Human))
assayNotes: recombinant hACC1 Transcreener ADP detection FP assay
conditionInfo: 50 μM ATP, 120 min at 25° C.
Recorded IC50, one value per entry.
Just the number in nM, nothing appended.

Answered cases to consult:
| molecule | targetOrTestSystem | IC50 / nM |
| --- | --- | --- |
| COc1cccc2ncc(C(=O)N3CCC4(CC3)Cc3cn(C(C)(C)C)nc3C(=O)N4)cc12 [Example 74] | recombinant human ACC1 (rhACC1) (Homo sapiens (Human)) | 18 |
| CC(C)(C)n1cc2c(n1)C(=O)NC1(CCN(C(=O)c3ccc4c(C#N)n[nH]c4c3)CC1)C2 [Example 53] | recombinant human ACC1 (rhACC1) (Homo sapiens (Human)) | 47 |
| CC(C)(C)n1cc2c(n1)C(=O)NC1(CCN(C(=O)c3ccc4ccnc(NC5COC5)c4c3)CC1)C2 [Example 122] | recombinant human ACC1 (rhACC1) (Homo sapiens (Human)) | 494 |

Sure, the documented IC50 for CNc1nc2cc(C(=O)N3CCC4(CC3)Cc3cnn(C(C)C)c3C(=O)N4)ccc2[nH]1 [Example 33] is 523

###

Recorded pIC50, one value per entry.
targetOrTestSystem: recombinant human ACC1 (rhACC1) (Homo sapiens (Human))
assayNotes: recombinant hACC1 Transcreener ADP detection FP assay
conditionInfo: 50 μM ATP, 120 min at 25° C.
Friendly reminder that pIC50 comes from taking -log10 of the concentration in mol/L.

Answered cases to consult:
| smilesStructure | observedValue |
| --- | --- |
| CC(C)(C)n1cc2c(n1)C(=O)NC1(CCN(C(=O)c3ccc4ccnc(NC5CC5)c4c3)CC1)C2 | 7.54 |
| CC(C)(C)n1cc2c(n1)C(=O)NC1(CCN(C(=O)c3ccc4cnc(N)cc4c3)CC1)C2 | 6.91 |
| CC(C)n1ncc2c1C(=O)NC1(CCN(C(=O)c3cnc4ccccc4c3)CC1)C2 | 6.47 |
| CC(C)n1ncc2c1C(=O)NC1(CCN(C(=O)c3ccc4c(cnn4C)c3)CC1)C2 | 5.69 |
| CC(C)n1ncc2c1C(=O)NC1(CCN(C(=O)c3ccc4[nH]c(N)nc4c3)CC1)C2 | 6.31 |

// next entry
Entry "CC(C)n1ncc2c1C(=O)NC1(CCN(C(=O)c3ccc4ncccc4c3)CC1)C2" under recombinant human ACC1 (rhACC1) (Homo sapiens (Human)) had pIC50 of 6.21

###

targetOrTestSystem: recombinant human ACC1 (rhACC1) (Homo sapiens (Human), UniProt Q13085)
assayNotes: recombinant hACC1 Transcreener ADP detection FP assay
conditionInfo: 50 μM ATP, 120 min at 25° C.
pIC50: −log10 of the molar value.
# cutoff 7 applies to pIC50; >= gives Criterion met, < gives Criterion not met

Solved cases below.
| compound | classification |
| --- | --- |
| COc1n[nH]c2cc(C(=O)N3CCC4(CC3)Cc3cn(C(C)(C)C)nc3C(=O)N4)ccc12 [Example 79] | Criterion not met |
| COc1cc(C(=O)N2CCC3(CC2)Cc2cnn(C(C)C)c2C(=O)N3)cc2[nH]ncc12 [Example 12] | Criterion met |
| CC(C)(C)n1cc2c(n1)C(=O)NC1(CCN(C(=O)c3ccc4[nH]nc(C(N)=O)c4c3)CC1)C2 [Example 54] | Criterion met |
| COc1ccc2cc(C(=O)N3CCC4(CC3)Cc3cn(C(C)(C)C)nc3C(=O)N4)ccc2c1 [Example 46] | Criterion met |
| CC(C)n1ncc2c1C(=O)NC1(CCN(C(=O)c3ccc4ccncc4c3)CC1)C2 [Example 23] | Criterion not met |
| CC(C)(C)n1ncc2c1C(=O)NC1(CCN(C(=O)c3ccc4n[nH]cc4c3)CC1)C2 [Example 6] | Criterion not met |

Next up:
Hi team, for COCCNc1ccc2ccc(C(=O)N3CCC4(CC3)Cc3cn(C(C)(C)C)nc3C(=O)N4)cc2n1 [Example 111] , is the recorded pIC50 at or above 7? Criterion met

Recorded values, source patent US8993586B2.
